Quick reference for C3b CFA: time (min.) for 50% cleavage of C3b α′-chain among some binders
target: C3b (Homo sapiens (Human)) (UniProt P01024)
Just the number please, in min, no unit attached.

Illustrative cases are given below, each with its answer.
D2D3M3M4 (L205K) (protein) CEVPTRLNSASLKQPYITQNYFPVGTVVEYECRPGYRREPSLSPKLTCLQNLKWSTAVEFCKKKSCPNPGEIRNGQIDVPGGILFGATISFSCNTGYKLFGSTSSFCKISGSSVQWSDPLPECREIYCTPPPKIKNGKHTFSEVEVFEYLDAVTYSCDPAPGPDPFSLIGESTIYCGDNSVWSRAAPECKVVKCRFPVVENGKQISGFGKKFYYKATVMFECDKGFYLDGSDTIVCDSNSTWDPPVPKCLKVL = 104
D2D3M3M4 (Multi-1) (protein) CEVPTRLNSASLKQPYITQNYFPVGTVVEYECRPGYRREPSLSPKLTCLQNLKWSTAVEFCKKKSCPNPGEIRNGQIDVPGGILFGATISFSCNTGYKLFGSTSSFCLISGSSVQWSDPLPICEKVLCTPPPKIKNGKHTFSEVEVFEYLDAVTYSCDPAPGPDPFSLIGESTIYCGDNSVWSRAAPECKVVKCRFPVVENGKQISGFGKKFYYKATVMFECDKGFYLDGSDTIVCDSNSTWDPPVPKCLKVL = 27.3
D2D3M3M4 (Multi-5) or DCP (protein) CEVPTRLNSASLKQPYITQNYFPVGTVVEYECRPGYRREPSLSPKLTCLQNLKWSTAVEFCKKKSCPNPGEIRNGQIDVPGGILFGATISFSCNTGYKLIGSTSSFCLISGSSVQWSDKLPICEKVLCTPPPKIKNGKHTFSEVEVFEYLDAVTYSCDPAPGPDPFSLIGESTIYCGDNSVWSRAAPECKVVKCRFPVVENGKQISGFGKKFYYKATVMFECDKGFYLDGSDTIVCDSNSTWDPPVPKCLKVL = 3.3

Task: Which measured C3b CFA: time (min.) for 50% cleavage of C3b α′-chain value corresponds to D2D3M3M4 (P216K) (protein) CEVPTRLNSASLKQPYITQNYFPVGTVVEYECRPGYRREPSLSPKLTCLQNLKWSTAVEFCKKKSCPNPGEIRNGQIDVPGGILFGATISFSCNTGYKLFGSTSSFCLISGSSVQWSDKLPECREIYCTPPPKIKNGKHTFSEVEVFEYLDAVTYSCDPAPGPDPFSLIGESTIYCGDNSVWSRAAPECKVVKCRFPVVENGKQISGFGKKFYYKATVMFECDKGFYLDGSDTIVCDSNSTWDPPVPKCLKVL ?
Result: 30.1

Task: // lookup C3b CFA: time (min.) for 50% cleavage of C3b α′-chain for D2D3M3M4 (F197I) (protein) CEVPTRLNSASLKQPYITQNYFPVGTVVEYECRPGYRREPSLSPKLTCLQNLKWSTAVEFCKKKSCPNPGEIRNGQIDVPGGILFGATISFSCNTGYKLIGSTSSFCLISGSSVQWSDPLPECREIYCTPPPKIKNGKHTFSEVEVFEYLDAVTYSCDPAPGPDPFSLIGESTIYCGDNSVWSRAAPECKVVKCRFPVVENGKQISGFGKKFYYKATVMFECDKGFYLDGSDTIVCDSNSTWDPPVPKCLKVL
Result: 49.8

Task: Looking for the measured C3b CFA: time (min.) for 50% cleavage of C3b α′-chain of D2D3M3M4 (Multi-4) (protein) CEVPTRLNSASLKQPYITQNYFPVGTVVEYECRPGYRREPSLSPKLTCLQNLKWSTAVEFCKKKSCPNPGEIRNGQIDVPGGILFGATISFSCNTGYKLIGKTSSFCLISGSSVQWSDKLPICEKVLCTPPPKIKNGKHTFSEVEVFEYLDAVTYSCDPAPGPDPFSLIGESTIYCGDNSVWSRAAPECKVVKCRFPVVENGKQISGFGKKFYYKATVMFECDKGFYLDGSDTIVCDSNSTWDPPVPKCLKVL , can you help?
Result: 17.5
